Give phosphorylation enrichment for every item shown.
biological target: EPHB1 (UniProt P54762); assay: phosphorylation enrichment, bacterial display (enrichment ratio); higher = better substrate or ligand; peptides without Tyr show the background;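 also: 11-residue human phosphosite peptides and single-mutation variants displayed on the E. coli surface, counted by deep sequencing, each peptide's frequency after selection divided by its frequency in the unselected input library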;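 also: frequency after pTyr selection over input frequency; kinase dosed for 20-30% of maximal phosphorylation in three min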
Sequence (P54762 whole entry, looked up): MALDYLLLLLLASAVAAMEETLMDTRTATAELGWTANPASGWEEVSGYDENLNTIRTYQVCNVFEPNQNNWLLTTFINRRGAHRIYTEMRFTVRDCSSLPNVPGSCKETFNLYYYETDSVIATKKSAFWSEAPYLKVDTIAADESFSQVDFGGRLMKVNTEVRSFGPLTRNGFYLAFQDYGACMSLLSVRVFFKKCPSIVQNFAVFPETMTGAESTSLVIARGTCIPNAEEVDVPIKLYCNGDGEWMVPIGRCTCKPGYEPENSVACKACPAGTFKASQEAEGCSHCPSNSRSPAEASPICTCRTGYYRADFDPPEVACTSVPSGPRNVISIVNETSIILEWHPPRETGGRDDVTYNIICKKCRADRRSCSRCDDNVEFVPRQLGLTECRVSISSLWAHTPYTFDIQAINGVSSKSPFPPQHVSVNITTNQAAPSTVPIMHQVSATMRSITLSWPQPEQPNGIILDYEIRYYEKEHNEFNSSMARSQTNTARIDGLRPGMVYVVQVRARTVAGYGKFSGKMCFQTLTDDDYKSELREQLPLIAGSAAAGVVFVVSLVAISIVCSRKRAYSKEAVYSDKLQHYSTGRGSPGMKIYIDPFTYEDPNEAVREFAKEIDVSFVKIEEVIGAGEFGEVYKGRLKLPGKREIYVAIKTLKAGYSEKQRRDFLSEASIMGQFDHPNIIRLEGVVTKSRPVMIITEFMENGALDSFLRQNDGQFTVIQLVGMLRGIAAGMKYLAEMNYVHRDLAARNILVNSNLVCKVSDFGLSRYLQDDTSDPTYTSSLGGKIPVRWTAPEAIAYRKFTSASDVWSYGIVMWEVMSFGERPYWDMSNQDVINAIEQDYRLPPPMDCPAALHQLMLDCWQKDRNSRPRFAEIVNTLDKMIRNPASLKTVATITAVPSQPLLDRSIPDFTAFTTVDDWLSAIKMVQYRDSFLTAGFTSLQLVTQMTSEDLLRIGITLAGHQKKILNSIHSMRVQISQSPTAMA

The recorded phosphorylation enrichment for VEDPEYAVTQL [STOML2_Y124] is 0.466

The recorded phosphorylation enrichment for TNFCLYLRSLE [MTM1_Y71_R69C_YF] is 0.895

The recorded phosphorylation enrichment for GLGGGYGGASG [KRT8_Y54] is 0.376

The recorded phosphorylation enrichment for DVCKNYTEAKD [ALB_Y343_A344T] is 0.555

The recorded phosphorylation enrichment for VDTRAYFTSAT [MT-CO1_Y304] is 0.37

The recorded phosphorylation enrichment for RSFSPCDFQPC [TNS1_Y796_Y796C_YF] is 0.54

The recorded phosphorylation enrichment for PMDTYYDSTRG [DYNC2H1_Y2231] is 1.28

The recorded phosphorylation enrichment for MKTISYETLIA [DOCK10_Y1350] is 0.53

The recorded phosphorylation enrichment for AEPNIYQEKLS [USP54_Y1233_D1231N] is 0.401

The recorded phosphorylation enrichment for KLFFIYTSGTT [SLC27A4_Y245_YF] is 0.633

The recorded phosphorylation enrichment for GHLYAYNWISI [BEST1_Y227_D228N] is 6.38

The recorded phosphorylation enrichment for VAMELYVFGGV [GAN_Y471] is 0.799

The recorded phosphorylation enrichment for TNEFEYDELIV [TGM1_Y136_D132N_YF] is 0.51

The recorded phosphorylation enrichment for KNITEYCRHLI [RECQL_Y492_D495H] is 0.51

====

test system: c-Abl (mouse); assay: phosphorylation enrichment, bacterial display (enrichment ratio); higher = better substrate or ligand; peptides without Tyr show the background
Label true when phosphorylation enrichment is at or above 0.8; otherwise label false.

Query string: Quick check, phosphorylation enrichment >= 0.8? RFLRGYRQYAY [HLA-A_Y137_D140Y]
Result string: true

Query string: Quick check, phosphorylation enrichment >= 0.8? ISDNAYQYMLT [MYH7_Y162]
Result string: false

Query string: Quick check, phosphorylation enrichment >= 0.8? DTKAFYPEEIS [HSPA1A_Y115_E110D]
Result string: false

Query string: Quick check, phosphorylation enrichment >= 0.8? TFHNTYHSQMR [IL1RAPL1_Y615]
Result string: false

Query string: Quick check, phosphorylation enrichment >= 0.8? SGEKPYKCSEC [ZNF543_Y283]
Result string: false

Query string: Quick check, phosphorylation enrichment >= 0.8? GSLEDYVRETN [GIMAP6_Y176]
Result string: false

Query string: Quick check, phosphorylation enrichment >= 0.8? KIVYVYVKKRS [DNAI2_Y7_E2K]
Result string: false

Query string: Quick check, phosphorylation enrichment >= 0.8? HESEIYCKVCF [CSRP3_Y57_YF]
Result string: true

Query string: Quick check, phosphorylation enrichment >= 0.8? IVKAFYVRARA [AIPL1_Y268_YF]
Result string: false

Query string: Quick check, phosphorylation enrichment >= 0.8? SAEEDYMADAK [KCNT1_Y876]
Result string: false

Query string: Quick check, phosphorylation enrichment >= 0.8? LECEWYKNGVK [TTN_Y2112_P2107L]
Result string: true

Query string: Quick check, phosphorylation enrichment >= 0.8? GCKKRYDKDKP [THAP1_Y14_N12K]
Result string: false

Query string: Quick check, phosphorylation enrichment >= 0.8? KPIETYFSKNF [PLP1_Y50_L46P_YF]
Result string: false

Query string: Quick check, phosphorylation enrichment >= 0.8? MASISYDFCRV [BST2_Y6_T4I_YF]
Result string: true

Query string: Quick check, phosphorylation enrichment >= 0.8? TRDVNYGWVIR [MT-CYB_Y75_I78V]
Result string: true

Query string: Quick check, phosphorylation enrichment >= 0.8? QNTGFYFDLFG [PTPN11_Y62_D61Y_YF]
Result string: true

Query string: Quick check, phosphorylation enrichment >= 0.8? SQSPHYFRSGQ [GPATCH8_Y1038_R1043Q]
Result string: false

Query string: Quick check, phosphorylation enrichment >= 0.8? VNNAVYGIDAM [EIF3J_Y143]
Result string: false

Query string: Quick check, phosphorylation enrichment >= 0.8? FAKTQYPDVYA [CRX_Y63]
Result string: false

Query string: Quick check, phosphorylation enrichment >= 0.8? FSGDFYRIQGR [DDR2_Y741_YF]
Result string: false

Query string: Quick check, phosphorylation enrichment >= 0.8? TDIVAYSGWVQ [SPTBN2_Y477_R480W]
Result string: true

Query string: Quick check, phosphorylation enrichment >= 0.8? IRTDAYVQAMT [RPE65_Y89_R91Q]
Result string: false

Query string: Quick check, phosphorylation enrichment >= 0.8? CLAKMYYSAVD [CP_Y539]
Result string: false

Query string: Quick check, phosphorylation enrichment >= 0.8? DSGKLYALDGL [INO80_Y1104_V1108G]
Result string: false

Query string: Quick check, phosphorylation enrichment >= 0.8? TKFRNYLIPKG [CYP2C8_Y379]
Result string: false

Query string: Quick check, phosphorylation enrichment >= 0.8? ILGRYYETGSI [PAX2_Y73]
Result string: false

Query string: Quick check, phosphorylation enrichment >= 0.8? GSIQQYTYKQE [PRG4_Y1271_I1272T]
Result string: false

====

molecular target: EPHB1 (UniProt P54762); experiment: phosphorylation enrichment, bacterial display (enrichment ratio); higher = better substrate or ligand; peptides without Tyr show the background
Label YES when phosphorylation enrichment is at or above 0.7; otherwise label NO.

Query string: Quick check, phosphorylation enrichment >= 0.7? LWKWKYEELKE [CCDC102B_Y299]
Result string: YES

Query string: Quick check, phosphorylation enrichment >= 0.7? GRSTCYWPRPR [GAGE12J_Y10_Y9C]
Result string: NO

Query string: Quick check, phosphorylation enrichment >= 0.7? TQNGVYSAANF [DDX5_Y535_YF]
Result string: YES

Query string: Quick check, phosphorylation enrichment >= 0.7? VMIYAYLLHRG [PTEN_Y138_C136Y]
Result string: NO

Query string: Quick check, phosphorylation enrichment >= 0.7? DTKAFYPEEIS [HSPA1A_Y115_E110D]
Result string: NO

Query string: Quick check, phosphorylation enrichment >= 0.7? DDEENYENVPR [FCRL3_Y722]
Result string: NO

====

tested on: AncSZ; experiment: phosphorylation enrichment, bacterial display (enrichment ratio); higher = better substrate or ligand; peptides without Tyr show the background
Give phosphorylation enrichment for every item shown.
Lab note: record the figure alone, no unit after it.

The recorded phosphorylation enrichment for NREGVYTDFAP [TGFBI_Y537_V539D] is 0.843

The recorded phosphorylation enrichment for LKGIRYLTSGL [PIGA_Y82_R77L] is 1.03

The recorded phosphorylation enrichment for GADAIYDHINE [UQCR10_Y44] is 1.03

The recorded phosphorylation enrichment for MDDKEYYSVHN [MET_Y1234_Y1230D] is 1.99

The recorded phosphorylation enrichment for HFMELYDLNRD [BBS2_Y648_R643H_YF] is 1.1

The recorded phosphorylation enrichment for TIQDAYMHITS [ADCY10_Y318_A313T] is 0.7

The recorded phosphorylation enrichment for LHVKMYNFLRS [ADGRG7_Y760_R756H] is 1.97

====

target: Fyn (UniProt P06241); assay: phosphorylation enrichment, bacterial display (enrichment ratio); higher = better substrate or ligand; peptides without Tyr show the background
Sequence (P06241 whole entry, looked up): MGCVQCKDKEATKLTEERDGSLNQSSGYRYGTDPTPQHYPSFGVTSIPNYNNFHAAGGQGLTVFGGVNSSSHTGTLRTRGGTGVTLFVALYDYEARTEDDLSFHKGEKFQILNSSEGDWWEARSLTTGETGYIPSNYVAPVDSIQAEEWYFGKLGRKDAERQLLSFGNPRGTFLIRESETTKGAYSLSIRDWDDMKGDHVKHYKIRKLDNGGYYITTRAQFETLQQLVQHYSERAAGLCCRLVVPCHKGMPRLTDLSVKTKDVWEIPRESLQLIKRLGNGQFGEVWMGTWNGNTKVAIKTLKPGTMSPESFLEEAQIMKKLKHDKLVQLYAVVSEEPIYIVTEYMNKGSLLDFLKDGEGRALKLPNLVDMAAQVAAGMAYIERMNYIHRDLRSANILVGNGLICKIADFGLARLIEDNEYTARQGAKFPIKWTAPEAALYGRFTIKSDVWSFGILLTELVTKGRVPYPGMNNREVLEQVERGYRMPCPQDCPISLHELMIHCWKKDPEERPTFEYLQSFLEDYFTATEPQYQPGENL
Give phosphorylation enrichment for every item shown.
Lab note: record the figure alone, no unit after it.

The recorded phosphorylation enrichment for MNPPPYSQLLS [FGF23_Y154_F157L] is 0.522

The recorded phosphorylation enrichment for FSPGSYERETF [NF1_Y2192] is 0.429

The recorded phosphorylation enrichment for YADPYYDYEIE [ZC3H18_Y372] is 2.52

The recorded phosphorylation enrichment for DGLASYLDKVR [KRT12_Y139_R135G] is 0.422

The recorded phosphorylation enrichment for YVPSNYVAEDR [FRK_Y104_I100V] is 0.411

The recorded phosphorylation enrichment for SIKGKYVTALF [KCNH2_Y611_D609G_YF] is 0.406

The recorded phosphorylation enrichment for AVRVFYRKCPH [EPHB2_Y194_R199H] is 0.496

The recorded phosphorylation enrichment for DFTEAYNSKIK [CLK1_Y305_P307S_YF] is 0.512

The recorded phosphorylation enrichment for IVEFAYNDKAV [PUM3_Y259_I264V_YF] is 0.52

The recorded phosphorylation enrichment for GGGGSYNVFGN [HNRNPA1_Y312_D314V] is 0.441

The recorded phosphorylation enrichment for KASGKYYAMKI [AKT3_Y173] is 0.359

The recorded phosphorylation enrichment for SRWKLYPRMLR [HAO1_Y50] is 0.405

The recorded phosphorylation enrichment for MDDKEYYSVHN [MET_Y1234_Y1230D] is 0.575

The recorded phosphorylation enrichment for HSFQCYGQNEA [ENTPD3_Y262_R264Q] is 0.535
